Test system: FcγIIb
RUN_DESCRIPTION: Reverse ELISA: inhibition of PAP immune complex binding to FcγIIb coated plates
RECORDED_CONDITIONS: PAP pre-incubated with peptide one hour; lower OD = more inhibition; positive control 1.394
Protocol: For this reason, a “reverse ELISA” technique was used to assess binding of the Fc region to ligands that bind to immune complexed IgG Fc. In a reverse ELISA, the enzyme (e.g., HRP) is not covalently conjugated to the Fc portion of the secondary antibody. […] Falcon microtiter plates were coated with 1:10 dilutions of highly purified FcγIIa, FcγIIb and FcγIII and incubated for 24 hours. […] After washing, plates were incubated with ABTS substrate for 15 minutes and read at 405 nm.
No end group written: not given here.
For each of the substances below, state its FcγIIb (OD read at 405 nm).
// keep it numeric: no unit symbol after the value

INPUT: Look up and report measured FcγIIb (OD read at 405 nm) for this entry: APPCARHLGELVWCT [SEQ ID NO:14]
OUTPUT: 0.768

INPUT: Look up and report measured FcγIIb (OD read at 405 nm) for this entry: Ala-Pro-Pro-Asp-Cys-Ala-Trp-His-Leu-Gly-Glu-Leu-Val-Trp-Cys-Thr (APPDCAWHLGELVWCT) [SEQ ID NO:16]
OUTPUT: 0.496

INPUT: Look up and report measured FcγIIb (OD read at 405 nm) for this entry: APPCAFHLGELVWCT (not fully specified; cysteine pairing not given here) [SEQ ID NO:15]
OUTPUT: 0.380

INPUT: Look up and report measured FcγIIb (OD read at 405 nm) for this entry: APPCAWHLGELVWCT [SEQ ID NO:13]
OUTPUT: 0.562

INPUT: Look up and report measured FcγIIb (OD read at 405 nm) for this entry: Asp-Cys-Ala-Trp-His-Leu-Gly-Glu-Leu-Val-Trp-Cys-Thr [SEQ ID NO:2]
OUTPUT: 0.532

INPUT: Look up and report measured FcγIIb (OD read at 405 nm) for this entry: Asp-Cys-Ala-Phe-His-Leu-Gly-Glu-Leu-Val-Trp-Cys-Thr (DCAFHLGELVWCT) [SEQ ID NO:3]
OUTPUT: 0.510
